# Tested on: Escherichia coli
# method.description: Antimicrobial activity against Escherichia coli at 10 ug/disk after 24 hrs by disk diffusion assay
# Format: functional
Calls of active or inactive are those of the source. No cut-off for these calls is given here.
value.kind: inhibition zone (IZ)

Consider the following illustrative entries.
Nc1nc(-c2ccc(Nc3nc(Nc4ccccc4)nc(Nc4ccccc4)n3)cc2)cc(-c2ccc([N+](=O)[O-])cc2)n1
inactive
O=C(/C=C/c1cccs1)c1ccc(Nc2nc(Nc3ccccc3)nc(Nc3ccccc3)n2)cc1
inactive
N#Cc1c(-c2ccc([N+](=O)[O-])cc2)cc(-c2ccc(Nc3nc(Nc4ccccc4)nc(Nc4ccccc4)n3)cc2)nc1N
inactive
COc1ccccc1-c1cc(-c2ccc(Nc3nc(Nc4ccccc4)nc(Nc4ccccc4)n3)cc2)nc(N)n1
inactive
CC(=O)N1N=C(c2ccc(Nc3nc(Nc4ccccc4)nc(Nc4ccccc4)n3)cc2)CC1c1cccs1 (stereo not drawn)
inactive
Nc1nc(-c2ccc(Cl)cc2)cc(-c2ccc(Nc3nc(Nc4ccccc4)nc(Nc4ccccc4)n3)cc2)n1
inactive
CC(=O)N1N=C(c2ccc(Nc3nc(Nc4ccccc4)nc(Nc4ccccc4)n3)cc2)CC1c1ccco1 (stereo not drawn)
inactive

inhibition zone (IZ) in this record for CC(=O)N1N=C(c2ccc(Nc3nc(Nc4ccccc4)nc(Nc4ccccc4)n3)cc2)CC1c1ccc([N+](=O)[O-])cc1 (stereo not drawn) : inactive

Where do these numbers come from? They come from ChEMBL document CHEMBL1154716.
